EC50 values by entry
target: T1, mucin domain-deleted Zaire GP (GPdMuc) (Ebola (Zaire) virus (EBOV), UniProt Q05320 33-632); experiment: ELISA on coated GP
T1 construct: also called Zaire GPdMuc; GP(Z)dMuc
Please respond with the number in µg/mL and leave the unit unwritten.

Below, each entry is followed by its recorded EC50 result.
antibody 231L (antibody, V domains shown) VH: EVQLVESGGGLVQPGGSLRLSCAASAFTFDDYAMHWVRQAPGKGLEWVSGITWSGLSTYYADSVKGRFTISRDNAKNSLYLQMNSLRVEDTALYYCAKSGNNSPFSGLDSWGQGAVVTVSS VL: QSVLTQPPSVSGAPGQRVTVSCTGSSSNIGAGSYVQWYQQLPGTAPKLLIYENNKRPSGVSDRFSGSKSGTSASLTITGLQSEDEADYYCQSYDSSLNAYIFGAGTRLTVL = 0.01
antibody 206L (antibody, V domains shown) VH: EVQLVESGGGVVQPGGSLRLSCAASGFTFDDYAMHWVRQAPGKGLEWVSGISWSGGNTYYADSVKGRFTVSRENAKNSLYLQMNRLRAEDTAFYNCARTSQGGAVVFSAPNYWGQGVLVTVSS VL: QSVLTQAPSVSGAPGQRVTISCTGSSSNIGGYYVQWYQQLPGRAPKLLIYENNKRPSGVSDRFSGSRSASSASLTITGLQSEDEADYYCQSYDSRLNGYIFGGGTRLTVL = 0.01
antibody 310L (antibody, V domains shown) VH: EMQLVESGGGLVQPGGSLRLSCAASGFTFDAYAMHWVRQRPGKGLEWISGIIWSGRTTYYADSVKGRFTFSRDNSKNSLYLEMNSLKPEDTALYYCAKDSWNYGVYNSLDVWGRGILVTVSS VL: QSVLTQPPSVSGAPGQRVTISCTGSSSNVGPHYVSWYQHLPGTTPKLLIFQDNKRPSGVSDRFSGSKSASSASLTITGLQTEDEADYYCLSYDSSLNVYIFGSGTRLTVL = 0.01
antibody 232L (antibody, V domains shown) VH: KSQLVESGGGLVQPGGSLRLSCAASGFTFDAYAMHWVRQAPGEGLEWVTAISWSGSSTYYADSVKGRFTFSRDNAKNSLYLEMNSLRADDTAFYYCVKGGVYNWFDVWGPGVLVTVSS VL: QSVLTQPPSVSGAPGQRVTISCTGSRSNIGGYYVSWYQQFPGTTPKLLIYQDNKRPSGVSDRFSGSKSGTSASLTITGLQTEDEADYYCLSYDSSLNGWVFGGGTRLTVL = 0.08

Here is another binder to look at.
Data request, read-out EC50, for antibody 191L (antibody, V domains shown) VH: EVQLVESGGGLVQPGGSLRLSCAASGFTFSSYGIHWVRQAPGKGLEWVAIISYDGNKKFHADSVKDRFTISRDNSKNMLYLQMNNLKLEDTAVYYCARAYDSGYFAGSVFYYWGQGVLVTVSS VL: EVVFTQPHSVSGSPGQTVTISCTRSSGSIDSEYVQWYQQRPGNAPTTVIYKDNQRPSGVPDRFSGSIDSSSNSASLAISGLKSEDEADYYCQSADGNYHPVFGEGTRLTVL
0.01
